log10 IC50 values by entry
Biological target: Heat shock protein HSP 90-beta (Homo sapiens, UniProt P08238)
Sequence (P08238 whole entry): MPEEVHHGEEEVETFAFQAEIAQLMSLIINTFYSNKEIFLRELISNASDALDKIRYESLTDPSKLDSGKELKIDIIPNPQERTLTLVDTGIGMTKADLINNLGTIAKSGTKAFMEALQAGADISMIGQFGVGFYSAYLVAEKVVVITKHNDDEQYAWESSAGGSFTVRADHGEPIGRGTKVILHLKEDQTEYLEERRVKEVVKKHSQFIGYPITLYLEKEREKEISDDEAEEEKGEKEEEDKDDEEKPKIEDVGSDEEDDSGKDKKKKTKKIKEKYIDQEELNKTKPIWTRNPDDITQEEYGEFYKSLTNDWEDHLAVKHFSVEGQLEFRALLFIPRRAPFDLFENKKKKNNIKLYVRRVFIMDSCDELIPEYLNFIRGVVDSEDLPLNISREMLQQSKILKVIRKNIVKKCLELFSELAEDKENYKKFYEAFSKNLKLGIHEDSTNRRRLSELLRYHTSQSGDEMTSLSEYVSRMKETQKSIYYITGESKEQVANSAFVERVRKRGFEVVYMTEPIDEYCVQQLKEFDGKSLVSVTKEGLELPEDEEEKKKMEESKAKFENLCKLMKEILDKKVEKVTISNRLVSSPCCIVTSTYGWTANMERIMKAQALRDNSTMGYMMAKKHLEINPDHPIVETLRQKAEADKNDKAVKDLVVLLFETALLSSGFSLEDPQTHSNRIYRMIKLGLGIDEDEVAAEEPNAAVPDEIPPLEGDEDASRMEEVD
Assay: Inhibition of full-length HSP90 (unknown origin) expressed in Escherichia coli assessed as inhibition of ATPase activity after 3 hrs by spectrophotometric analysis
Log scale reminder: IC50 in µM, then log10 taken.

line notation	log10 IC50
COc1cc(CN2CCc3nc(N4CCOCC4)ncc3C2)cc(OC)c1OC	1.74

INPUT: Look at this compound and give its reported log10 IC50. O=C(c1ccc(Cl)cc1)N1CCc2nc(N3CCN(c4ncccn4)CC3)ncc2C1
OUTPUT: 1.39

INPUT: Param item: CCN1CCN(c2ncc3c(n2)CCN(Cc2ccc(Br)s2)C3)CC1
OUTPUT: 1.87

INPUT: Param item: CCCN1CCN(c2ncc3c(n2)CCN(Cc2cc(Br)cs2)C3)CC1
OUTPUT: 1.77
